# target entity: KAT6A (Homo sapiens (Human))
# Sequence (Q92794 whole entry): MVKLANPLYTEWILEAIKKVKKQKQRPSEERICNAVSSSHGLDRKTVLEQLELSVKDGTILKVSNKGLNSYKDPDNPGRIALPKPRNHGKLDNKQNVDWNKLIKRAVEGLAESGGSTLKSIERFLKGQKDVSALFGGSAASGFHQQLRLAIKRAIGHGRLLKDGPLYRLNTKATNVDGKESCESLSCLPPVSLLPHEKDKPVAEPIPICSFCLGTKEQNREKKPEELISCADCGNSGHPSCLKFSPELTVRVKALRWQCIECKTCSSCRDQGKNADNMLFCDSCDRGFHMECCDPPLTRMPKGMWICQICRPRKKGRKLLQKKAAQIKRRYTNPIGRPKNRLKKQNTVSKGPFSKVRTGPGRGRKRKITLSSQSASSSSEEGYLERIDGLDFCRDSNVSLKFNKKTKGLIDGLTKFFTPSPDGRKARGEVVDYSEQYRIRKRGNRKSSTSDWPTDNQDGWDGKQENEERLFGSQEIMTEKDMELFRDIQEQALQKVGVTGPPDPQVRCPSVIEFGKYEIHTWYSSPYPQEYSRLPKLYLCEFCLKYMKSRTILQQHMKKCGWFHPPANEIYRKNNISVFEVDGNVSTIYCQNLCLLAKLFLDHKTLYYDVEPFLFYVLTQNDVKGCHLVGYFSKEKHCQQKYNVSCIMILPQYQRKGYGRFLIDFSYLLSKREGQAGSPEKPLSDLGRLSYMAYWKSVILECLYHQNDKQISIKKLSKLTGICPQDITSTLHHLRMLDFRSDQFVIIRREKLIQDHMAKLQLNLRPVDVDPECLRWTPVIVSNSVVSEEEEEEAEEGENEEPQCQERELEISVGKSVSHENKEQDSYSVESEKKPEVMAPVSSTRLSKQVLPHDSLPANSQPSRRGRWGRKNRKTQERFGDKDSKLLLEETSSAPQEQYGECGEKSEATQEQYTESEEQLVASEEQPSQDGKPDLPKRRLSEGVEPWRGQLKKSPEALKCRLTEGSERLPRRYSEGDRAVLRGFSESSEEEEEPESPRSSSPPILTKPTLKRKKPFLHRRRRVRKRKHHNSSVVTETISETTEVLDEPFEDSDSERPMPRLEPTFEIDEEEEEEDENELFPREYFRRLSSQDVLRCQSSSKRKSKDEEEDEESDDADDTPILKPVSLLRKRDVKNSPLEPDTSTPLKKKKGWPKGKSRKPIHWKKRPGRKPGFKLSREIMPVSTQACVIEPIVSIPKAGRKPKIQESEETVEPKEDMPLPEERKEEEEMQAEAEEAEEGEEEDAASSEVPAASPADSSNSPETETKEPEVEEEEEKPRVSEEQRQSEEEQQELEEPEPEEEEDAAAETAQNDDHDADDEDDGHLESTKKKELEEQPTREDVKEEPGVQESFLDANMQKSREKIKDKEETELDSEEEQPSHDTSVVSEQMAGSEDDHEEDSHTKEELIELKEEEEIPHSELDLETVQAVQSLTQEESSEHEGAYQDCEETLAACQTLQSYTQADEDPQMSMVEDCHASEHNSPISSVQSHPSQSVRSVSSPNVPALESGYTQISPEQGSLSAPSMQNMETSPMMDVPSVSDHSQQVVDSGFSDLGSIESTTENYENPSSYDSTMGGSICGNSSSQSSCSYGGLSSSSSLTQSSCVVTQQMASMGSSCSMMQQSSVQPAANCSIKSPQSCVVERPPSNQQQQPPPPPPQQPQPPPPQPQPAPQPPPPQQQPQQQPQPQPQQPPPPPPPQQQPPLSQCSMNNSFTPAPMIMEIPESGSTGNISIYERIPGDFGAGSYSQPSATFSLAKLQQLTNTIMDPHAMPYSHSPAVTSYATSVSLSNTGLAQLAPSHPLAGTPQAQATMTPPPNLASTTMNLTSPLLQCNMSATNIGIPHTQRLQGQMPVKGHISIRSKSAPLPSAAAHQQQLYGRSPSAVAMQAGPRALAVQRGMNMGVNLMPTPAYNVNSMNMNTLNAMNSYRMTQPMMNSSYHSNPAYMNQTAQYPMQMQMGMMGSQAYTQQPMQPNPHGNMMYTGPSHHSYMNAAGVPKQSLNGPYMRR
# assay method text: KAT assay (SAMDI mass spectrometry), KAT6A;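 also: Baculovirus-expressed KAT6A acetylating histone H3 (1-21) peptide (2 µM), 30-60 min at room temperature, % product conversion fitted to Morrison equation for tight-binding competitive inhibitors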
# Type: biochemical
# study conditions: read-out: KAT6a Ki at 10 μM AcCoA; 10 μM AcCoA
Please go through the items and note down their pKi.
Please keep in mind that pKi is minus log10 of the molar concentration; only the number is needed.

**Q:** Give a short answer stating reported pKi for COc1cc(Cn2cccn2)cc2onc(NS(=O)(=O)c3cc(F)c(F)c(F)c3)c12 [Example 64] .
**A:** 7.96

**Q:** Give a short answer stating reported pKi for COc1ccc(S(=O)(=O)Nc2noc3cc(Cn4cccn4)cc(OC)c23)c(OC)c1 [Example 5] .
**A:** 8.86

**Q:** Give a short answer stating reported pKi for COc1cc(Cn2cccn2)cc2onc(NS(=O)(=O)c3ccc(C)c(C)c3)c12 [Example 72] .
**A:** 8.63

**Q:** Give a short answer stating reported pKi for COc1cc(Cn2cccn2)cc2onc(NS(=O)(=O)c3cc(F)c(F)cc3F)c12 [Example 86] .
**A:** 8.15

**Q:** Give a short answer stating reported pKi for COCc1ccc(OC)c(S(=O)(=O)Nc2noc3cc(Cn4cccn4)cc(OC)c23)c1 [Example 12] .
**A:** 8.77

**Q:** Give a short answer stating reported pKi for COc1cc(Cn2cccn2)cc2onc(NS(=O)(=O)c3cccc(C(F)(F)F)c3)c12 [Example 53] .
**A:** 8.06

**Q:** Give a short answer stating reported pKi for COc1cccc(OC)c1S(=O)(=O)Nc1noc2cc(Cn3cc(O)cn3)cc(OC)c12 [Example 105] .
**A:** 8.20

**Q:** Give a short answer stating reported pKi for CCOc1ccc(S(=O)(=O)Nc2noc3cc(Cn4cccn4)cc(OC)c23)cc1 [Example 69] .
**A:** 8.04

**Q:** Give a short answer stating reported pKi for COc1cc(Cn2cccn2)cc2onc(NS(=O)(=O)c3cc(C)c(F)c(C)c3)c12 [Example 78] .
**A:** 8.24

**Q:** Give a short answer stating reported pKi for COc1cc(Cl)ccc1S(=O)(=O)Nc1noc2cc(Cn3cccn3)cc(OC)c12 [Example 71] .
**A:** 8.93

**Q:** Give a short answer stating reported pKi for COc1cc(OC)c(S(=O)(=O)Nc2noc3cc(Cn4cccn4)cc(OC)c23)c(OC)c1 [Example 14] .
**A:** 9.31

**Q:** Give a short answer stating reported pKi for COc1cc(Cn2cccn2)cc2onc(NS(=O)(=O)c3cc(F)c(Cl)cc3F)c12 [Example 68] .
**A:** 7.98

**Q:** Give a short answer stating reported pKi for COc1cc(Cn2cccn2)cc2onc(NS(=O)(=O)c3cccc(F)c3F)c12 [Example 54] .
**A:** 7.42

**Q:** Give a short answer stating reported pKi for CCOc1cc(Cn2cccn2)cc2onc(NS(=O)(=O)c3c(OC)cccc3OC)c12 [Example 25] .
**A:** 8.74

**Q:** Give a short answer stating reported pKi for CCOc1cc(C)ccc1S(=O)(=O)Nc1noc2cc(Cn3cccn3)cc(OC)c12 [Example 50] .
**A:** 9.40

**Q:** Give a short answer stating reported pKi for COc1cccc(OC)c1S(=O)(=O)Nc1noc2cc(Cn3nccn3)cc(OC)c12 [Example 23] .
**A:** 8.91

**Q:** Give a short answer stating reported pKi for COc1cc2c(cc1S(=O)(=O)Nc1noc3cc(Cn4cccn4)cc(OC)c13)CCCC2 [Example 20] .
**A:** 9.06
